Exercise: state measured Papp for each of the compounds provided.
- Protocol notes: Permeability of compound by PAMPA assay
- Assay type: ADME
- Conditions: read-out: permeability

Prompt line: Give reported Papp value for CC1=C(C(=O)Nc2nnc(-c3cccnc3)s2)C(c2ccccc2Cl)N=C(Nc2nc3ccc(C)cc3o2)N1 (stereo not drawn)
Response line: < 2.9 ×10⁻⁶ cm/s

Prompt line: # return recorded Papp for input CC1=C(C(=O)NCc2ccc(C(=O)O)cc2)C(c2ccccc2Cl)N=C(Nc2nc3ccccc3o2)N1 (stereo not drawn)
Response line: < 1 ×10⁻⁶ cm/s

Prompt line: For the compound COc1ccc2nc(NC3=NC(c4ccccc4Cl)C(C(=O)Nc4nnc(-c5cccnc5)s4)=C(C)N3)oc2c1 (stereo not drawn) , give its reported Papp.
Response line: < 4.4 ×10⁻⁶ cm/s

Prompt line: Quick one: give measured Papp for CC1=C(C(=O)Nc2cc(C(=O)O)ccn2)[C@@H](c2ccc(C)cc2Cl)N=C(Nc2nc3ccc(F)cc3o2)N1
Response line: < 1 ×10⁻⁶ cm/s

Prompt line: Consider the compound CC1=C(C(=O)Nc2cc(C(=O)O)ccn2)C(c2cccc(S(N)(=O)=O)c2)N=C(Nc2nc3ccc(F)cc3o2)N1 (stereo not drawn) . State its measured Papp.
Response line: < 10 ×10⁻⁶ cm/s

Prompt line: Input O=C1CC(C(=O)O)CC2=C1C(c1ccccc1Cl)N=C(Nc1nc3ccccc3o1)N2 (stereo not drawn) , output reported Papp.
Response line: < 1 ×10⁻⁶ cm/s

Prompt line: In one line, give reported Papp of the entry CC1=C(C(=O)NCc2cccc(C(=O)O)c2)C(c2ccccc2Cl)N=C(Nc2nc3ccccc3o2)N1 (stereo not drawn) .
Response line: < 1.3 ×10⁻⁶ cm/s

Prompt line: State its Papp: CC1=C(C(=O)NCCN(C)C)C(c2ccccc2Cl)N=C(Nc2nc3ccccc3o2)N1 (stereo not drawn)
Response line: > 1230 ×10⁻⁶ cm/s

----------
- Organism: Homo sapiens
- Protocol notes: Inhibition of human GALK1 K252A/E253A double mutant relative to control
- Set-up: concentration or dose not given beside the values
- Conditions: concentration not given here
Observable: inhibition
Respond with a number, then the unit of measure.

Prompt line: Please list inhibition recorded for the compound CC1=C(C(=O)NCc2cn(C)cn2)C(c2ccccc2Cl)N=C(Nc2nc3ccccc3o2)N1 (racemic)
Response line: 90%

Prompt line: Return value of inhibition for input CC1=C(C(=O)Nc2cc(C(=O)O)ccn2)C(c2ccccc2Cl)N=C(Nc2nc3cccc(C(F)(F)F)c3o2)N1 (stereo not given) , no commentary.
Response line: 100%

Prompt line: Give inhibition for CC1=C(C(=O)Nc2ccccc2)C(c2ccccc2Cl)N=C(Nc2nc3ccccc3o2)N1 (stereo not given)
Response line: 57%

Prompt line: Query inhibition for CC1=C(C(=O)Nc2cc(C(=O)O)ccn2)C(c2ccc(F)cc2Cl)N=C(Nc2nc3ccc(F)cc3o2)N1 (stereo not given)
Response line: 100%

Prompt line: Please supply the value of reported inhibition for the item CC1=C(C(=O)Nc2ncc(C(=O)O)s2)C(c2ccccc2Cl)N=C(Nc2nc3ccccc3o2)N1 (stereo not given)
Response line: 99%

----------
- Protocol notes: Permeability of compound by PAMPA assay
- Format: ADME
- Conditions: read-out: permeability
Task for the reader: assign each of the following molecules its reported Papp.

Prompt line: Identify measured Papp associated with CC1=C(C(=O)Nc2ccc(O)cc2)C(c2ccccc2Cl)N=C(Nc2nc3ccccc3o2)N1 (centres undefined)
Response line: < 14.5 ×10⁻⁶ cm/s

Prompt line: Supply reported Papp belonging to this molecule: O=C(O)CNC(=O)C1CC(=O)C2=C(C1)NC(Nc1nc3ccccc3o1)=NC2c1ccccc1Cl (centres undefined)
Response line: < 1 ×10⁻⁶ cm/s

Prompt line: For CC1=C(C(=O)Nc2cc(C(=O)O)ccn2)C(c2cccc(N)c2Cl)N=C(Nc2nc3ccc(F)cc3o2)N1 (centres undefined) , write its Papp.
Response line: < 1 ×10⁻⁶ cm/s

Prompt line: Report Papp for CC1=C(C(=O)Nc2cc(C(=O)O)ccn2)C(c2ccc(Br)cc2Cl)N=C(Nc2nc3ccc(F)cc3o2)N1 (centres undefined)
Response line: < 1.7 ×10⁻⁶ cm/s

----------
- Protocol notes: Stability of compound in rat microsomes assessed as half-life
- Assay type: ADME, Microsome
Observable: half-life

Prompt line: Specify reported half-life for the compound shown: CC1=C(C(=O)Nc2nnc(C(F)(F)F)s2)C(c2ccccc2Cl)N=C(Nc2nc3ccccc3o2)N1 (stereo not given)
Response line: > 30 min

Prompt line: # return recorded half-life for entry CC1=C(C(=O)Nc2ccc(-n3cccn3)cc2)C(c2ccccc2Cl)N=C(Nc2nc3ccccc3o2)N1 (stereo not given)
Response line: 16.4 min

Prompt line: Supply half-life value. Item: CC1=C(C(=O)Nc2ccc(Br)cc2)C(c2ccccc2Cl)N=C(Nc2nc3ccccc3o2)N1 (stereo not given)
Response line: > 30 min

Prompt line: Report half-life for CCn1cc(CNC(=O)C2=C(C)NC(Nc3nc4cccc(N)c4o3)=NC2c2ccc(F)cc2Cl)cn1 (stereo not given)
Response line: 18.8 min

Prompt line: Read off the recorded half-life for COC(=O)C1=C(C(F)(F)F)NC(Nc2nc3ccccc3o2)=NC1c1ccccc1Cl (stereo not given)
Response line: 10.5 min

----------
What IC50 was measured for each of the following?
- Protocol notes: Inhibition of recombinant mouse GALK1 using ATP as substrate incubated for 1 hr and measured by Kinase-Glo assay
- Conditions: read-out: IC50
Could you give me the number in µM? Just the number is fine.

Prompt line: // fetch IC50 given entry CC1=C(C(=O)NCc2cn(C)cn2)[C@H](c2ccccc2Cl)N=C(Nc2nc3ccccc3o2)N1
Response line: 4.32

Prompt line: Respond only with IC50 recorded for CNC(=O)C1CC(=O)C2=C(C1)NC(Nc1nc3ccccc3o1)=NC2c1ccccc1Cl (stereo not given)
Response line: 6.85

Prompt line: Report IC50 for CC1=C(C(=O)NCc2cnn(C)c2)C(c2ccccc2Cl)N=C(Nc2nc3cccc(N)c3o2)N1 (stereo not given)
Response line: 3.43

Prompt line: Indicate the recorded IC50 value for this compound: CC1=C(C(=O)Nc2cc(C(=O)O)ccn2)C(c2ccccc2Cl)N=C(Nc2nc3cccc(C)c3o2)N1 (stereo not given)
Response line: 6.85

Prompt line: Answer with the recorded IC50 for the compound listed here: CC1=C(C(=O)Nc2cc(C(=O)O)ccn2)C(c2ccccc2Br)N=C(Nc2nc3ccc(F)cc3o2)N1 (stereo not given)
Response line: 3.85

Prompt line: Let me know recorded IC50 for CC1=C(C(=O)NCc2ccc(C(=O)O)cc2)C(c2ccccc2Cl)N=C(Nc2nc3ccccc3o2)N1 (stereo not given) , thanks.
Response line: 10.9

Prompt line: Write down IC50 measured for item CC1=C(C(=O)Nc2cc(C(=O)O)ccn2)C(c2ccc(C(=O)O)cc2Cl)N=C(Nc2nc3ccc(F)cc3o2)N1 (stereo not given)
Response line: 15.3

Prompt line: Quote IC50 reported for CC1=C(C(=O)Nc2ccccc2)C(c2ccccc2Cl)N=C(Nc2nc3ccccc3o2)N1 (stereo not given) please.
Response line: 13.7

Prompt line: Quick one: give measured IC50 for CC1=C(C(=O)Nc2cc(C(=O)O)ccn2)C(c2cccc(N)c2Cl)N=C(Nc2nc3ccc(F)cc3o2)N1 (stereo not given)
Response line: 17.2

Prompt line: Recall and state the measured IC50 for CC1=C(C(=O)Nc2cc(C(=O)O)ccn2)C(c2ccccc2Cl)N=C(Nc2nc3ccc(Cl)cc3o2)N1 (stereo not given) .
Response line: 6.11

Prompt line: Give the value of IC50 reported for the following: O=C(O)CNC(=O)C1CC(=O)C2=C(C1)NC(Nc1nc3ccccc3o1)=NC2c1ccccc1Cl (stereo not given)
Response line: 4.85

Prompt line: State its IC50 for this compound: CC1=C(C(=O)NCc2nc3ccccc3n2C)C(c2ccccc2Cl)N=C(Nc2nc3ccccc3o2)N1 (stereo not given)
Response line: 13.7

Prompt line: Read off the recorded IC50 for CC1=C(C(=O)NCc2cn(C)cn2)C(c2ccccc2Cl)N=C(Nc2nc3ccccc3o2)N1 (racemic)
Response line: 7.69

Prompt line: Specify IC50 for CC1=C(C(=O)Nc2ccc(C#N)cn2)C(c2ccccc2Cl)N=C(Nc2nc3ccc(F)cc3o2)N1 (stereo not given) and stop.
Response line: 13.7

Prompt line: Give recorded IC50. O/N=C1\CCCC2=C1C(c1ccccc1Cl)N=C(Nc1nc3ccccc3o1)N2 (stereo not given)
Response line: 10.9

Prompt line: Answer with the recorded IC50 for the compound listed here: COP(=O)(OC)C1=C(C)NC(Nc2nc3ccccc3o2)=NC1c1ccccc1Cl (stereo not given)
Response line: 13.7

Prompt line: Determine its reported IC50: COC(=O)c1ccc(NC(=O)C2=C(C)NC(Nc3nc4ccccc4o3)=NC2c2ccccc2Cl)cc1 (stereo not given)
Response line: 9.68

Prompt line: Identify the reported IC50 for the following entry. CC1=C(C(=O)Nc2nncs2)C(c2nn(C)cc2Br)N=C(Nc2nc3ccccc3o2)N1 (stereo not given)
Response line: 19.3

Prompt line: Determine its reported IC50: CC1=C(C(=O)NCc2cnn(C)c2)C(c2ccc(Cl)cc2Cl)N=C(Nc2nc3cccc(N)c3o2)N1 (stereo not given)
Response line: 6.85

Prompt line: Give the value of IC50 reported for the following: CC1=C(C(=O)Nc2nncs2)C2(CCCC2)N=C(Nc2nc3ccccc3o2)N1
Response line: 19.3

Prompt line: Please give measured IC50 of the following entry: CC1=C(C(=O)Nc2cc(C(N)=O)ccn2)C(c2ccccc2Cl)N=C(Nc2nc3ccc(F)cc3o2)N1 (stereo not given)
Response line: 19.3

Prompt line: For the compound CC1=C(C(=O)NCc2cnn(C)c2)C(c2ccccc2Cl)N=C(Nc2nc3ccccc3o2)N1 (stereo not given) , give its reported IC50.
Response line: 12.2

Prompt line: Find the measured IC50 of CC1=C(C(=O)Nc2nncs2)C(c2ncccc2Cl)N=C(Nc2nc3ccccc3o2)N1 (stereo not given) and report it.
Response line: 19.3

Prompt line: Return reported IC50. Input compound: CC1=C(C(=O)Nc2ccc(Br)cc2)C(c2ccccc2Cl)N=C(Nc2nc3ccccc3o2)N1 (stereo not given)
Response line: 15.3

Prompt line: Input CC1=C(C(=O)Nc2cc(C(=O)O)ccn2)C(c2ccc(N3CCCCC3)cc2Cl)N=C(Nc2nc3ccc(F)cc3o2)N1 (stereo not given) , output reported IC50.
Response line: 12.2

Prompt line: Look up and report measured IC50 for this entry: CCn1nc(C)c(CNC(=O)C2=C(C)NC(Nc3nc4ccc(F)c(N)c4o3)=NC2c2ccc(C)cc2Cl)c1F (stereo not given)
Response line: 2.17

Prompt line: For the compound CC1=C(C(=O)NCc2cccc(CO)c2)C(c2ccccc2Cl)N=C(Nc2nc3ccccc3o2)N1 (stereo not given) , give its measured IC50 value.
Response line: 12.2

Prompt line: State its IC50: CC1=C(C(=O)Nc2ccccn2)C(c2ccccc2Cl)N=C(Nc2nc3cccc(N)c3o2)N1 (stereo not given)
Response line: 19.3

Prompt line: Give reported IC50 value for CC1=C(C(=O)Nc2cc(C(=O)O)ccn2)C(c2ccccc2Cl)N=C(Nc2nc3cccc([N+](=O)[O-])c3o2)N1 (stereo not given)
Response line: 38.5

Prompt line: Specify reported IC50 for the compound shown: CC1=C(C(=O)Nc2nncs2)C(c2cc(Cl)ccc2Cl)N=C(Nc2nc3ccccc3o2)N1 (stereo not given)
Response line: 10.9

Prompt line: Please indicate IC50 recorded for CC1=C(C(=O)Nc2ccc(CO)cn2)C(c2ccccc2Cl)N=C(Nc2nc3ccc(F)cc3o2)N1 (stereo not given)
Response line: 19.3

Prompt line: Note down IC50 recorded for CC1=C(C(=O)Nc2nncs2)C(c2n[nH]cc2Br)N=C(Nc2nc3ccccc3o2)N1 (stereo not given)
Response line: 19.3

Prompt line: Output IC50 of CC1=C(C(=O)NCc2cncn2C)C(c2ccccc2Cl)N=C(Nc2nc3ccccc3o2)N1 (stereo not given)
Response line: 6.85

Prompt line: Please give measured IC50 of the following entry: CC1=C(C(=O)Nc2ccc([N+](=O)[O-])cc2)C(c2ccccc2Cl)N=C(Nc2nc3ccccc3o2)N1 (stereo not given)
Response line: 3.43

Prompt line: Please indicate IC50 recorded for CC1=C(C(=O)NCc2ccccn2)C(c2ccccc2Cl)N=C(Nc2nc3ccccc3o2)N1 (stereo not given)
Response line: 19.3

// data source = ChEMBL document CHEMBL5050861
